- system: mTOR (Homo sapiens)
observed-property: IC50

Input COc1ccc(Cl)c(Nc2nc3ccccc3nc2NS(=O)(=O)c2cccc(NC(=O)C(C)(C)N)c2)c1 [Compound A] . Output IC50: > 15 µM
